The compounds listed here are annotated with their TGI.
test system: ACHN renal; experiment: NCI tumour cell line growth inhibition, 48 h

// known answers, use as guide
{"columns": ["COMPOUND", "RESULT"],
 "data": [
  ["O=C1N[C@@H]2c3c(csc3Br)C(=O)[C@@H]2O1", "> 100 µM"],
  ["COc1ccc(CN2CCCC(C(=O)c3ccc(C(F)(F)F)cc3)C2)c(O)c1 (stereo unspecified)", "> 100 µM"],
  ["Cc1cc(C)nc(NS(=O)(=O)c2ccc(NC(=O)c3cccc4c(=O)c5ccccc5[nH]c34)cc2)n1", "49.2 µM"],
  ["C/C(=N/NC(=S)Nc1cccc(C)c1)c1ccccn1", "6.83 µM"],
  ["Brc1ccc2c3c1[C@@H]1O[C@@H]1c1cccc(c1-3)[C@@H]1O[C@H]21", "67.1 µM"],
  ["O=C(O/N=C1/CCC/C1=C\\c1ccccc1)c1ccc([N+](=O)[O-])cc1", "> 100 µM"]
]}

Please look at this compound and report its TGI: COC(=O)c1c(OC)cccc1C(=O)O
> 100 µM

Please look at this compound and report its TGI: Cc1nc2ccc([N+](=O)[O-])cc2c(=O)n1C(=S)Nc1cccc(Cl)c1
48.2 µM

All figures here come from PubChem BioAssay (NCI).
